- Test system: HFF
- assay notes: Inhibitory concentration against the growth of Toxoplasma gondii overexpressing FPPS enzyme in human foreskin fibroblast monolayer cells; (control = 0.79 uM, experiment 3)
- Format: functional, cell-based
measurement type: IC50
Respond with the figure and its unit, in that order.

State IC50 (HFF) of `O=P(O)(O)C(O)(Cn1ccnc1)P(=O)(O)O` .
7.8 µM

----------
- assay notes: Therapeutic index (TI) value as ratio of lethal dose (LD50) to the inhibitory concentration (IC50)
- Type: cell-based
- particulars: human, KB cells; read-out: TI
measurement type: selectivity ratio

Consider the worked cases shown below.
# compound, measurement type, reported value
measured = [
    ("O=P(O)(O)C(N1CCCCC1)P(=O)(O)O", "selectivity ratio", "> 21.9"),
    ("CCCCC(O)(P(=O)(O)O)P(=O)(O)O", "selectivity ratio", "> 6.95"),
    ("O=P(O)(O)C(N1CCSCC1)P(=O)(O)O [THIOMORPHOLINOMETHYLENEDIPHOSPHONIC ACID]", "selectivity ratio", "> 6.73"),
    ("CCCCCCCCCCC(O)(P(=O)(O)O)P(=O)(O)O", "selectivity ratio", "> 2950"),
]

Please give measured selectivity ratio of the following entry: `O=P(O)(O)C(O)(CCc1cccnc1)P(=O)(O)O`
> 5.46

Please give measured selectivity ratio of the following entry: CCCCCCCCCNC(P(=O)(O)O)P(=O)(O)O [(NONYLAMINO)METHYLENEDIPHOSPHONIC ACID]
> 103

Please give measured selectivity ratio of the following entry: `O=P(O)(O)C(O)(CSc1ccncc1)P(=O)(O)O`
> 10.3

Where these numbers come from: ChEMBL document CHEMBL1143625
